# Experimental System: Prostaglandin G/H synthase 1 (Homo sapiens, UniProt P23219)
# Sequence (P23219 whole entry): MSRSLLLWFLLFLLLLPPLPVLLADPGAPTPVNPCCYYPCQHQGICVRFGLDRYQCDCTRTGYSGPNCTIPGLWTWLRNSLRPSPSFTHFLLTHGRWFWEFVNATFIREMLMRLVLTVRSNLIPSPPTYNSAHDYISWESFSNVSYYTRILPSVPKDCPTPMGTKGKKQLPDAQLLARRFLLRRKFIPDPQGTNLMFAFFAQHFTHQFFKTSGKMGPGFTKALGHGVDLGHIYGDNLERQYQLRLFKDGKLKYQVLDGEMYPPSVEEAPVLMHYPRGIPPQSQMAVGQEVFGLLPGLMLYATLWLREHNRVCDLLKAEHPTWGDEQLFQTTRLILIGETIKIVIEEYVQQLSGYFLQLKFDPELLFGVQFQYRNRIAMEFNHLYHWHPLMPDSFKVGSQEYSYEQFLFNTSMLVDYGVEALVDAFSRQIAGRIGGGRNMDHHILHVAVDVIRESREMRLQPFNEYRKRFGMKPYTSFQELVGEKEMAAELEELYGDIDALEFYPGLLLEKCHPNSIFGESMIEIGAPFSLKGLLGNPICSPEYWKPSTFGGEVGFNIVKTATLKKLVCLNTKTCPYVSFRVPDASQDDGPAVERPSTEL
# Type: tissue-based, Blood
# Description: In vitro inhibitory concentration against Prostaglandin G/H synthase 1 (COX-1) in human whole blood
Property: IC50 (µM)

{"Cpd Smiles": "CS(=O)(=O)c1ccc(-c2cc(C(F)(F)F)cnc2C(=O)c2ccccc2)cc1", "Output Unit": "µM", "Relational Operator": "=", "Result Value": 14}
{"Cpd Smiles": "Cc1ccc(-c2ncc(Cl)cc2-c2ccc(S(C)(=O)=O)cc2)cn1", "Output Unit": "µM", "Relational Operator": ">", "Result Value": 200}

###

# Experimental System: Prostaglandin G/H synthase 2 (Homo sapiens)
# Sequence (P35354 whole entry): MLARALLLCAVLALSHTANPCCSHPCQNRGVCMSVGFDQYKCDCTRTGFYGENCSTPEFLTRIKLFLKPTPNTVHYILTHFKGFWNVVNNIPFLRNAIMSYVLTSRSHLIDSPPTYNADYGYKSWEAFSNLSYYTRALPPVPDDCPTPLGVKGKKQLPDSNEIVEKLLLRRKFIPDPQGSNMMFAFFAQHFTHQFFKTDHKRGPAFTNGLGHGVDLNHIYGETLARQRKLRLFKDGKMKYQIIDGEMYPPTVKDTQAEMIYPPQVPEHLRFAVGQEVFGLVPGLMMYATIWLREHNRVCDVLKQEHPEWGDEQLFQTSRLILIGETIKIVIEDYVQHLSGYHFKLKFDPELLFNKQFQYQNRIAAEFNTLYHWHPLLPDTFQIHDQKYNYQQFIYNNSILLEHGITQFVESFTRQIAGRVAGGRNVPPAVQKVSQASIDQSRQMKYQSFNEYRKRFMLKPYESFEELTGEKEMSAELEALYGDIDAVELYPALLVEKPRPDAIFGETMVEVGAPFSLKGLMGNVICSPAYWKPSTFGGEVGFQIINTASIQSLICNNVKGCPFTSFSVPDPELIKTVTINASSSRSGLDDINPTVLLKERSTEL
pIC50: −log10 of the molar value.
Property: pIC50

{"Cpd Smiles": "CS(=O)(=O)c1ccc(-c2cc(C(F)(F)F)cnc2C(=O)c2ccccc2)cc1", "Result Value": 6.60}
